Values were extracted from patent US20230233569A1.

Biological target: NRAS G12C (Homo sapiens, UniProt P01111+P62937, G12C)
Sequence (P01111 whole entry G12C): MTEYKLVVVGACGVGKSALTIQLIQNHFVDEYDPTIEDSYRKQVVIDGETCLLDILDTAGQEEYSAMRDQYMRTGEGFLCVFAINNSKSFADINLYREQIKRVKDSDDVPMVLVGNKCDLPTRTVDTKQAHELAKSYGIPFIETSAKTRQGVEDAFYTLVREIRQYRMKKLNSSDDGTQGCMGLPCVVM
Sequence (P62937 whole entry): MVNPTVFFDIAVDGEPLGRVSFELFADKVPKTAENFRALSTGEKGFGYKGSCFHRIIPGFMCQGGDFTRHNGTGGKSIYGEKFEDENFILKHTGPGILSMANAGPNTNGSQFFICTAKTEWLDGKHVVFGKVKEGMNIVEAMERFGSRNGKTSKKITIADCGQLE
Assay: Disruption of BRAF RBD interaction with Ras (FRET / MOA assay, with Cyclophilin A)
Format: biochemical
Conditions: NRAS G12C; read-out: NRAS G12C FRET data IC50
From the text: This protocol may also be executed substituting other Ras proteins or nucleotides. The purpose of this biochemical assay was to measure the ability of test compounds to facilitate ternary complex formation between a nucleotide-loaded K-Ras isoform and Cyclophilin A; the resulting ternary complex disrupts binding to a BRAF^RBD construct, inhibiting K-Ras signaling through a RAF effector. Data is reported as IC50 values. […]
Please respond with reported IC50 for every item in the list.

Req: # query: IC50 | item `CCn1c(-c2cccnc2[C@H](C)OC)c2c3cc(ccc31)-c1csc(n1)C[C@H](NC(=O)[C@@H]1CCCO1)C(=O)N1CCC[C@H](N1)C(=O)OCC(C)(C)C2` | system: NRAS G12C (Homo sapiens, UniProt P01111+P62937, G12C)
Resp: 100 to 1000 nM

Req: Do the same for `CCn1c(-c2cccnc2[C@H](C)OC)c2c3cc(ccc31)-c1csc(n1)C[C@H](NC(=O)[C@H](C(C)C)N(C)C(=O)N1CCCC13CCN(C)CC3)C(=O)N1CCC[C@H](N1)C(=O)OCC(C)(C)C2` please
Resp: 10 to 100 nM

Req: How about this molecule: C=CC(=O)N1CC[C@H](C(=O)N(C)[C@@H](CC(F)(F)F)C(=O)N[C@H]2Cc3cccc(c3)-c3ccc4c(c3)c(c(-c3cccnc3[C@H](C)OC)n4CC)CC(C)(C)COC(=O)C3CCCN(N3)C2=O)C1 (stereo partly drawn)
Resp: 100 to 1000 nM
